Biological target: T1, Lsb3, P43603
T1 sequence (P43603 385-451, looked up): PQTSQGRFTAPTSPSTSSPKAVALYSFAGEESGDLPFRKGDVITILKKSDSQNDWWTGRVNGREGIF
Test: SPOT array
Settings: median of control spots 406
reported-endpoint: SPOT intensity
// return a plain number; no unit text

Reference set, count: 3
• KFIPSRPAPKPPSSA = 41
• SNRRPVPRRPSQPLN = 183
• GRSRLFPHSPLGRSS = 0

stdin: Returns the measured SPOT intensity for the input binder. Input: "SKAKRPKFLLDLQIK"
stdout: 2

stdin: Returns the measured SPOT intensity for the input binder. Input: "YLTRPLPSTPNEDSR"
stdout: 139

stdin: Returns the measured SPOT intensity for the input binder. Input: "NHSRSLFSLPGNQQS"
stdout: 0

stdin: Returns the measured SPOT intensity for the input binder. Input: "NAGIRPKFILALNDE"
stdout: 0

stdin: Returns the measured SPOT intensity for the input binder. Input: "SRYRRPLTLLLLKPF"
stdout: 2

stdin: Returns the measured SPOT intensity for the input binder. Input: "RSRRSSFAYPQQVAI"
stdout: 2
